Test: soluble on expression in E. coli; label from the status in PepcDB or PDB records
attribute-measured: soluble on expression in E. coli

Example cases with answers are listed next.
MGSDKIHHHHHHMRLLSQVNLNSLKIVESAARHGNFTRAGEEQFITASAVSQRVKSLEDQLRFKIFQRGGNAVSLTPEGETYVSRVREALERIVAASMEATGQSQEHVLKISVLPTFAARWLFPRLPEFQRRYPDIVMRVSTSYATHEFSTSDFDLEIRYGDGHFNGLPSDLLFREDLTPVCSRKLFHEVLGDKPVSKVEPDDLRHFTLLHSDTCTQNWQSWLGFAGASFVLSETKSIYFDSCMMSYEAANAGMGFAVANRAYMASDIRAEKLVAPFAVHHPNSAGWYFVSPHKCLAARKVLLFKQWVMAEAALTQRQLDSEIRDLATEAV; not soluble
MNMPHKFNQYNKSIPVNKHVIELLENDPSLLPSDIAKQLSISEVEVVKSLPKEMVTMVSGLKTQEILEGLVGFGDVTTIVHSFGSIFEVKAPFPKGKIAHGYYNLMGREGQLHGHLKLDLIQDIALISKPFRGTESHYFGFFNHDGHSVFKIYLGRDKKRQLIPEQVEAFNVLKQEYKLEHHHHHH; soluble
SKGYFETNRIQHIIVDEAQNFHTEDGNWCEKAKGITQGGKACPRMFWIFLDYFQTSHLKESGLPDFELQYPKEELTQVVRNGDKIAEFLQQELGKIRDNPPCSIPRASLNIVHEFKWSQSISGTLKIKYLTSEKMVSYVANKCDVFLSKGYSPQDIAVLFSTDREKKAYEHMFLREMRKKRRASQMNDTSVCHSNMFDRIRRFSGLERSIVFGINPIATEQPISHNLLICLASRAMKYLYILYALTPEGQSSTVAC; soluble
MIGKEEIHRIRELIGAKEGPVLSLYVDVNPAKPENAGRAYALRAKDAIKALEVPGDLSERVLEVLQNQVLEARTAVFFAGEDLFEVLPLQVELPLVNSVKTAFLDEKAGRYLVDGVLAHWGEPFLLPLVYALDEYERYGIVYVDRERWRVFEVFLGEIEEVHDAFLALDTEAWRRLSLDAPGRRFNLGGIARGGAGQDLFAKRLEAWEERFYKALAHELERLSEARGFTRLVLMGPEEHTKLFLGHLPKRLRERVVAELPSLPHPGASPGEVLKRLEPVLEEVERREEVKLLERLEEAYPKAAFGPEVLARVQEGRVEVWVLPWHLEQEVYLCQDFAFADEAQALAYCESPEKKPLAAVLASLAVGYATKLEFVRGEAENRLLERGGMAALLRW; soluble
NIDEHSLFVNVGERTNVTGSKAFARLILNGGYAEGLVIARSQVENGAQIIDINMDEAMLDSQKAMVTFLNLLAAEPDISRLPIMLDSSKWSVIEAGLKCVQGKAVINSISLKEGEAEFLHHARLARRYGAAVIVMAFDETGQADTLQRKVEICTRCYHTLIEQADFPPEDIIFDPNIFAIATGIEEHSNYAVDFIEATHVIRQTLPYAKVSGGVSNVSFSFRGNEPIREAIHTAFLYHAVKAGMTMGIVNAGQLGVYSDIPPDLLEHVEDVLLNRRPDATERLVEFAEHFKGQKKEQIE; not soluble
MGSDKIHHHHHHVHLTYENTNEEIIAVKRKPRHQPPHLHNAMEIVCVTKGTLELGVGQELYHMETGDIGVVFPDVIHHYQVFSSEVNEAVFINAPQMIFGRFENVLRNNAPQYPVVKSDVIPDEVYRAVESIIDTGQNDIWVVQAYLQIILARCIPMMKLVEKSKIGSDDIIYRTVSYISANFNKSISLDGMAHDLGVSKFSLSRLFSKTFHSSFNQYVNEARLGYACQRIETTDDTLTEISMDSGFGSLRTFNRVFKEKYRLTPSEYRNKLQI; not soluble

*Q* Returns the measured soluble on expression in E. coli for the input sequence. Input: MASNQIEGAVVGIRVNDGIAAAPVVLFTHEMPAVPERDFQSEQGEIERVKRAIGVVVQHLQEQAKQPKGEIFSAHSMMLSDPELWASVESRIQTGMIAEQAWIESLQTLADEFRQAESQYMREREADVHDIARQVMVEMTGVTPNAIDIQEPSILLARDLMPSDVAGLDKSKVLGICLSEGGKTSHSAILARAMGIPAMVKAQGCLDAVRAGQVVTIDGFRGHLWFSPSDAIQQELEAQQIEWQSTRQSALASAQQA
*A* not soluble

*Q* Try MAHHHHHHMPSLFDPLTIGDLTLANRIIMAPLTRARAGDTRTPNALMARYYAERASAGLIISEATSVTPQGVGYASTPGIWSPEQVDGWRLVTDAVHAAGGRIFLQLWHVGRVSDPVFLDGALPVAPSAIAPGGHVSLVRPQRPYVTPRALELDEIPGVVAAFRRGAENARAAGFDGVEVHGANGYLLDQFLQDSANRRTDAYGGSIENRARLLLEVVDAAIDVWSAARVGVHLAPRGDAHTMGDSDPAATFGHVARELGRRRIAFLFARESFGGDAIGQQLKAAFGGPFIVNENFTLDSAQAALDAGQADAVAWGKLFIANPDLPRRFKLNAPLNEPNAATFYAQGEVGYTDYPALESAA next.
*A* soluble

*Q* Moving on to VLHAIEPLNLGPKPIFVHEQGLLVEWIDGITLTKDGIELEELLPIAATIHQYHSSSIPVVPFSYISRIDHYWLELEGKYVGSEFETLYKQWRSEPSVEQIPLALCHFDLGCYNLVRGDQGVKVIDWEYASLADPRLDL
*A* not soluble

*Q* Please do the same for MSRIRSNNDNIIILTDEQRKTVGRIAGRSQNRNTSKKIADGPYFLPRYRIRDNAERSVGARFKSLPQKEQDEVVNEAFSNLREYLKKREPFYAKLRKANSKYSSKPKEREKSVDSNDEADRRNKGNKKTQKNASKNCQIEKSSNNSGILKKSGSGISVASKPKKSVAFAPGVYEDLSTDDDLEFLNSVIVNSDRPTSQCDNPARRMCGRPPTKHRDTEQSQEITGSKKQKIFPTPHEKPAWWSFRIPKKRAQ as well.
*A* soluble

*Q* Now consider MVEVVGVRFREAGHIYYFAPGKSEYIYNEKVLVESQQSKQLATVAIPKKTVDSDDLPEDLKPILNKATANDLEKEQKNLADAEAAKSIANEKIRAHDLKMKLVRVEYTFDRSKMIFYFTADGRIDFRELVKDLAAIFRTRIELRQIGVRDEAKILGGIGPCGRQLCCSTFLGDFMPVSIKMAKDQGLSLNPVKISGLCGRLMCCLKYENDEYEAAKKELPDYGKEVITPDGKGKVVGLNLLSRIVKVRLHGREIAADYDYEEIKEATAKVAAEKGDQNGLEHHHHHH and answer again.
*A* soluble
